Items are presented alongside their recorded melting point.
parameter: melting point

- compound: "O=C(O)CCSC(SCCC(=O)O)c1cccc(OCc2ccc3ccccc3n2)c1"
  parameter: "melting point"
  recorded-value: "150 to 152 °C"
- compound: "COc1cccc(CC(=O)O)c1OCCCc1cn(-c2ccc(Cl)cn2)nc1C(C)C"
  parameter: "melting point"
  recorded-value: "148 to 149 °C"
- compound: "COC(=O)c1ccccc1S(=O)(=O)Nn1c(C)nn(-c2nc(OC)cc(OC)n2)c1=O"
  parameter: "melting point"
  recorded-value: "174 °C"
- compound: "COc1cc(Cl)ccc1NC(=O)C(C)(C)C"
  parameter: "melting point"
  recorded-value: "66 to 69 °C"
- compound: "Cn1c(=O)c(-c2c(Cl)cccc2Cl)cc2cnc(NCCc3ccccn3)nc21"
  parameter: "melting point"
  recorded-value: "173 to 174 °C"

These entries and their values trace back to a melting point compilation (Tetko et al.; mined from patent text by program, amines drawn as free bases though some values may be those of a salt).
